test-target: MRP2 (ABCC2) (Homo sapiens)
test-description: in vitro
details: sf9
Description: Effect on human MRP2-mediated estradiol-17-beta-glucuronide transport in Sf9 cells inverted membrane vesicles relative to control
Response field label: string, one of t (activity strictly below 90%) or f.

Hello, I'm reviewing records and need to know if activity of CCN(CC)CCCC(C)Nc1ccnc2cc(Cl)ccc12 (stereo not drawn) is below 90%. Could you check?
f

Hello, I'm reviewing records and need to know if activity of `Cc1cccc(C)c1OCC(=O)N[C@@H](Cc1ccccc1)[C@@H](O)C[C@H](Cc1ccccc1)NC(=O)[C@H](C(C)C)N1CCCNC1=O` is below 90%. Could you check?
t

* * *

test-target: MRP2 (ABCC2) (Homo sapiens)
test-description: in vitro
details: probe estradiol-17-beta-glucuronide
readout-kind: activity
Kindly report the value followed by its unit.

Example results:
molecule | observed-measurement
C[C@]12C=CC(=O)C=C1CC[C@@H]1[C@@H]2[C@@H](O)C[C@@]2(C)[C@H]1CC[C@]2(O)C(=O)CO [PREDNISOLONE] | 110%
O=C1C[C@@H](c2ccc(O)cc2)Oc2cc(O)cc(O)c21 [NARINGENIN] | 207%
CC(=O)[C@@]1(O)CC[C@H]2[C@@H]3C[C@H](C)C4=CC(=O)CC[C@]4(C)[C@H]3CC[C@@]21C | 111%

From here, focus on the item given below.
Quick check: activity on MRP2 (ABCC2) (Homo sapiens), item CCOC(=O)N1CCC(=C2c3ccc(Cl)cc3CCc3cccnc32)CC1 [LORATADINE] ?
6%

* * *

We begin with a simple list: items and their reported activity.
test-target: MRP2 (ABCC2) (Homo sapiens)
test-description: in vitro
details: probe estradiol-17-beta-glucuronide
State the answer as a number, implicitly in %.

compound | endpoint-unit | activity
CO[C@H]1/C=C/O[C@@]2(C)Oc3c(C)c(O)c4c(O)c(c(/C=N/N5CCN(C)CC5)c(O)c4c3C2=O)NC(=O)/C(C)=C\C=C\[C@H](C)[C@H](O)[C@@H](C)[C@@H](O)[C@@H](C)[C@H](OC(C)=O)[C@@H]1C | % | 18
COc1cc([C@@H]2c3cc4c(cc3[C@@H](O[C@@H]3O[C@@H]5CO[C@@H](C)O[C@H]5[C@H](O)[C@H]3O)[C@H]3COC(=O)[C@H]23)OCO4)cc(OC)c1O [ETOPOSIDE] | % | 110
S=C=NCCc1ccccc1 [PHENETHYLISOTHIOCYANATE] | % | 94
Cc1cn([C@H]2C[C@H](N=[N+]=[N-])[C@@H](CO)O2)c(=O)[nH]c1=O | % | 103
CCC1=C(C)CN(C(=O)NCCc2ccc(S(=O)(=O)NC(=O)N[C@H]3CC[C@H](C)CC3)cc2)C1=O [GLIMEPIRIDE] | % | 142

From here, focus on the item given below.
Any idea what its activity is? The compound is `CCC(C)(C)C(=O)O[C@H]1C[C@@H](C)C=C2C=C[C@H](C)[C@H](CC[C@@H]3C[C@@H](O)CC(=O)O3)[C@H]21`
61

* * *

test-target: MRP2 (ABCC2) (Homo sapiens, UniProt Q92887);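 note: Inside-out membrane vesicles from Sf9 insect cells expressing human MRP2, measuring uptake of the estradiol glucuronide substrate, expressed as percent of untreated control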
Sequence (Q92887 whole entry): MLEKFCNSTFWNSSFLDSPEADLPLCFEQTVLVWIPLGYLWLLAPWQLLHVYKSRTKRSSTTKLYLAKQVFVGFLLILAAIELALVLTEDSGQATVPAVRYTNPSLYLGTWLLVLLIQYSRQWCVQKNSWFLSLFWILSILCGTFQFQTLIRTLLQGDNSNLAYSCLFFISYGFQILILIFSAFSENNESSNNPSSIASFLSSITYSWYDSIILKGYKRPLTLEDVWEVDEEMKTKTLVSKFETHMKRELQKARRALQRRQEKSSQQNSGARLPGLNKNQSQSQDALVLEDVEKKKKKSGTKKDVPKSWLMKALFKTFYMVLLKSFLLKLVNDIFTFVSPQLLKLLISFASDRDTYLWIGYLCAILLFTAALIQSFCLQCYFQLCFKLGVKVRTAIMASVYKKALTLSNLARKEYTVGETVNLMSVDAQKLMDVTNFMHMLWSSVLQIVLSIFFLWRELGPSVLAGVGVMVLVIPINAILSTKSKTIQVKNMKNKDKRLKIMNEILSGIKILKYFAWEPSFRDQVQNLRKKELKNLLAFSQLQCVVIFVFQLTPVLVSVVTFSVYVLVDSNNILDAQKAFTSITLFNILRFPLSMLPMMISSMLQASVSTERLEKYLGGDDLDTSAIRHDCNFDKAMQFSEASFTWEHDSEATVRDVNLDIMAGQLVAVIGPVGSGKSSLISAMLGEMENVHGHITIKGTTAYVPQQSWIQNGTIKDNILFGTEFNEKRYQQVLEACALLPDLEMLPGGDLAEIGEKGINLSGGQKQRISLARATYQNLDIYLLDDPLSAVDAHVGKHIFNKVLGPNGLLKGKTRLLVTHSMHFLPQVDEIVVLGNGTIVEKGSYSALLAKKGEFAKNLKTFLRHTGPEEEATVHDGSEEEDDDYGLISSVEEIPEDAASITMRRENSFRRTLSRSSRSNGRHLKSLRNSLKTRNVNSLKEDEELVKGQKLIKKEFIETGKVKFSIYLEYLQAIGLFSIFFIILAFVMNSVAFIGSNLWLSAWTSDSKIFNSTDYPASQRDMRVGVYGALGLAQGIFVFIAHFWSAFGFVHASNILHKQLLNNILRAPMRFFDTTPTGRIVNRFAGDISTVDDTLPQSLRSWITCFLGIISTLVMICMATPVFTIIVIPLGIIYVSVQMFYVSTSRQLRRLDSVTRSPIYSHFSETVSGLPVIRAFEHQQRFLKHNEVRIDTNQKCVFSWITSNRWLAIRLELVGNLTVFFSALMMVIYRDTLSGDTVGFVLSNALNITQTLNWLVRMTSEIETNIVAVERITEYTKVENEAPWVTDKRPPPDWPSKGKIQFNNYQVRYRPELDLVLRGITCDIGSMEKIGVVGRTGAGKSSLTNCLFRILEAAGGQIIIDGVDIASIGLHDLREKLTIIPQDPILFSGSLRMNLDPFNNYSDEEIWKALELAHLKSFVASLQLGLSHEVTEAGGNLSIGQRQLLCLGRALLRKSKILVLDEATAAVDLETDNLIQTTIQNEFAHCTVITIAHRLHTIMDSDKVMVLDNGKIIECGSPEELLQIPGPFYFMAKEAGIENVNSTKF
test-description: in vitro
details: probe estradiol-17-beta-glucuronide
readout-kind: activity (%)
State the answer as a number, implicitly in %.

Example results:
compound | test-target | endpoint-unit | observed-measurement
C[C@H]1O[C@@H](O[C@H]2[C@@H](O)C[C@H](O[C@H]3[C@@H](O)C[C@H](O[C@H]4CC[C@@]5(C)[C@H](CC[C@@H]6[C@@H]5C[C@@H](O)[C@]5(C)[C@@H](C7=CC(=O)OC7)CC[C@]65O)C4)O[C@@H]3C)O[C@@H]2C)C[C@H](O)[C@@H]1O | MRP2 (ABCC2) (Homo sapiens, UniProt Q92887) | % | 99
O=C(CCCN1CCC(O)(c2ccc(Cl)cc2)CC1)c1ccc(F)cc1 | MRP2 (ABCC2) (Homo sapiens, UniProt Q92887) | % | 106
Cc1ccc(S(=O)(=O)NC(=O)NN2CC3CCCC3C2)cc1 (stereo not drawn) [GLICLAZIDE] | MRP2 (ABCC2) (Homo sapiens, UniProt Q92887) | % | 174
CCOC(=O)C1=C(C)NC(C)=C(C(=O)OC)C1c1cccc(Cl)c1Cl (stereo not drawn) | MRP2 (ABCC2) (Homo sapiens, UniProt Q92887) | % | 86
C#Cc1cccc(Nc2ncnc3cc(OCCOC)c(OCCOC)cc23)c1 | MRP2 (ABCC2) (Homo sapiens, UniProt Q92887) | % | 47

Any idea what its activity is? The compound is `CC(C)[C@H](N)C(=O)OCCOCn1cnc2c(=O)[nH]c(N)nc21`
94

Any idea what its activity is? The compound is `CC1=C(CC(=O)O)c2cc(F)ccc2/C1=C\c1ccc(S(C)(=O)=O)cc1`
113

Any idea what its activity is? The compound is `COc1ccc([C@@H]2Sc3ccccc3N(CCN(C)C)C(=O)[C@@H]2OC(C)=O)cc1`
40

Any idea what its activity is? The compound is `CC(C)(C)NC(=O)[C@@H]1C[C@@H]2CCCC[C@@H]2CN1C[C@@H](O)[C@H](Cc1ccccc1)NC(=O)[C@H](CC(N)=O)NC(=O)c1ccc2ccccc2n1`
41

Any idea what its activity is? The compound is `C[C@@H](NCCc1ccc(O)cc1)[C@@H](O)c1ccc(O)cc1`
113
